System: PSMA-positive 22rv1 tumor-bearing mouse
Assay: 177Lu labeling and animal biodistribution experiment, gamma counter
Type: in vivo
Details: 177Lu-labeled compound, 24 h after tail vein injection, n = 2
OUTCOME_MEASURE: Blood uptake (% ID/g)
Provide the reading as a plain figure in % ID/g.

Solved cases below.
[[record]]
molecule = "O=C(O)CC[C@H](NC(=O)NC(CCCCNC(=O)[C@H](Cc1ccc2ccccc2c1)NC(=O)[C@H]1CC[C@H](NC(=O)COCCOCCNC(=O)c2cc(NC(=O)CCCCCCCNC(=O)CN3CCN(CC(=O)O)CCN(CC(=O)O)CCN(CC(=O)O)CC3)cc(C(=O)NCCOCCOCC(=O)N[C@H]3CC[C@H](C(=O)N[C@@H](Cc4ccc5ccccc5c4)C(=O)NCCCC[C@H](NC(=O)N[C@@H](CCC(=O)O)C(=O)O)C(=O)O)CC3)c2)CC1)C(=O)O)C(=O)O (stereo partly drawn) [DB-15]"
target = "PSMA-positive 22rv1 tumor-bearing mouse"
outcome_measure = "Blood uptake"
readout_units = "% ID/g"
value = 0.035

[[record]]
molecule = "O=C(O)CC[C@H](NC(=O)N[C@@H](CCCCNC(=O)[C@H](Cc1ccc2ccccc2c1)NC(=O)c1ccc(C2CCN(C(=O)CCC(=O)NCC(=O)N3CN(C(=O)CNC(=O)CCC(=O)N4CCC(c5ccc(C(=O)N[C@@H](Cc6ccc7ccccc7c6)C(=O)NCCCC[C@H](NC(=O)N[C@@H](CCC(=O)O)C(=O)O)C(=O)O)cc5)CC4)CN(C(=O)CNC(=O)CN4CCN(CC(=O)O)CCN(CC(=O)O)CCN(CC(=O)O)CC4)C3)CC2)cc1)C(=O)O)C(=O)O [DB-12]"
target = "PSMA-positive 22rv1 tumor-bearing mouse"
outcome_measure = "Blood uptake"
readout_units = "% ID/g"
value = 0.145


Switching to the query record.
Exam item: Return reported Blood uptake; argument: O=C(O)CC[C@H](NC(=O)NC(CCCCNC(=O)[C@H](Cc1ccc2ccccc2c1)NC(=O)c1ccc2c(c1)CCN(C(=O)CNC(=O)c1cc(NC(=O)CNC(=O)CN3CCN(CC(=O)O)CCN(CC(=O)O)CCN(CC(=O)O)CC3)cc(C(=O)NCC(=O)N3CCc4cc(C(=O)N[C@@H](Cc5ccc6ccccc6c5)C(=O)NCCCC[C@H](NC(=O)N[C@@H](CCC(=O)O)C(=O)O)C(=O)O)ccc4C3)c1)C2)C(=O)O)C(=O)O (stereo partly drawn) [DB-19]
Marked response: 1.715

###

Tested on: PSMA-positive 22rv1 tumor-bearing mouse
Assay: 177Lu labeling and animal biodistribution experiment, gamma counter
Format: in vivo
Conditions: 177Lu-labeled compound, 24 h after tail vein injection, n = 2
Attribute: Blood uptake
Provide the reading as a plain figure in % ID/g.

[[record]]
compound = "O=C(O)CC[C@H](NC(=O)N[C@@H](CCCCNC(=O)[C@H](Cc1ccc2ccccc2c1)NC(=O)c1ccc2c(c1)CCN(C(=O)CN1CCN(CC(=O)O)CCN(CC(=O)O)CCN(CC(=O)O)CC1)C2)C(=O)O)C(=O)O [Compound E-3, reference compound]"
readout_units = "% ID/g"
value = 0.02

[[record]]
compound = "O=C(O)CC[C@H](NC(=O)N[C@@H](CCCCNC(=O)[C@H](Cc1ccc2ccccc2c1)NC(=O)c1ccc2c(c1)CCN(C(=O)CCC(=O)NCC(=O)N1CN(C(=O)CNC(=O)CCC(=O)N3CCc4cc(C(=O)N[C@@H](Cc5ccc6ccccc6c5)C(=O)NCCCC[C@H](NC(=O)N[C@@H](CCC(=O)O)C(=O)O)C(=O)O)ccc4C3)CN(C(=O)CNC(=O)CN3CCN(CC(=O)O)CCN(CC(=O)O)CCN(CC(=O)O)CC3)C1)C2)C(=O)O)C(=O)O"
readout_units = "% ID/g"
value = 0.06

[[record]]
compound = "O=C(O)CC[C@H](NC(=O)NC(CCCCNC(=O)[C@H](Cc1ccc2ccccc2c1)NC(=O)c1ccc(C2CCN(C(=O)CNC(=O)c3cc(NC(=O)COCCOCCNC(=O)CN4CCN(CC(=O)O)CCN(CC(=O)O)CCN(CC(=O)O)CC4)cc(C(=O)NCC(=O)N4CCC(c5ccc(C(=O)N[C@@H](Cc6ccc7ccccc7c6)C(=O)NCCCC[C@H](NC(=O)N[C@@H](CCC(=O)O)C(=O)O)C(=O)O)cc5)CC4)c3)CC2)cc1)C(=O)O)C(=O)O (some centres unmarked)"
readout_units = "% ID/g"
value = 1.54

[[record]]
compound = "O=C(O)CC[C@H](NC(=O)NC(CCCCNC(=O)[C@H](Cc1ccc2ccccc2c1)NC(=O)c1ccc(C2CCN(C(=O)CCC(=O)NCCCC[C@H](NC(=O)CCC(=O)N3CCC(c4ccc(C(=O)N[C@@H](Cc5ccc6ccccc6c5)C(=O)NCCCC[C@H](NC(=O)N[C@@H](CCC(=O)O)C(=O)O)C(=O)O)cc4)CC3)C(=O)NCCNC(=O)CN3CCN(CC(=O)O)CCN(CC(=O)O)CCN(CC(=O)O)CC3)CC2)cc1)C(=O)O)C(=O)O (some centres unmarked)"
readout_units = "% ID/g"
value = 0.160


Exam item: Return reported Blood uptake; argument: `O=C(O)CC[C@H](NC(=O)N[C@@H](CCCCNC(=O)[C@H](Cc1ccc2ccccc2c1)NC(=O)c1ccc2c(c1)CCN(C(=O)CCC(=O)NCCCC[C@H](NC(=O)CCC(=O)N1CCc3cc(C(=O)N[C@@H](Cc4ccc5ccccc5c4)C(=O)NCCCC[C@H](NC(=O)N[C@@H](CCC(=O)O)C(=O)O)C(=O)O)ccc3C1)C(=O)NCCNC(=O)CN1CCN(CC(=O)O)CCN(CC(=O)O)CCN(CC(=O)O)CC1)C2)C(=O)O)C(=O)O`
Marked response: 1.125

###

Test system: PSMA-positive 22rv1 tumor-bearing mouse
Test: 177Lu labeling and animal biodistribution experiment, gamma counter
Type: in vivo
Settings: 177Lu-labeled compound, 24 h after tail vein injection, n = 2
Procedure: Distribution in PSMA-positive tumor-bearing mouse tissues: Tumor-bearing animals (purchased from Shanghai Alamo Pharmaceutical Technology Co., Ltd.) were subcutaneously inoculated with 3×10^6 22rv1 cells (in 50% Matrigel, Corning) into the right shoulder region of 6-9 week old (Balb/c Nude) mouse. […] Blood was collected through the abdominal aorta and 100 μL was immediately quantified into designated centrifuge tubes (weighed). […] Samples were measured on the day of collection. […]
OUTCOME_MEASURE: Kidney uptake (% ID/g)
Provide the reading as a plain figure in % ID/g.

Exam item: Return reported Kidney uptake; argument: O=C(O)CC[C@H](NC(=O)N[C@@H](CCCCNC(=O)[C@H](Cc1ccc2ccccc2c1)NC(=O)c1ccc(C2CCN(C(=O)CCC(=O)NCC(=O)N3CN(C(=O)CNC(=O)CCC(=O)N4CCC(c5ccc(C(=O)N[C@@H](Cc6ccc7ccccc7c6)C(=O)NCCCC[C@H](NC(=O)N[C@@H](CCC(=O)O)C(=O)O)C(=O)O)cc5)CC4)CN(C(=O)CNC(=O)CN4CCN(CC(=O)O)CCN(CC(=O)O)CCN(CC(=O)O)CC4)C3)CC2)cc1)C(=O)O)C(=O)O [DB-12]
Marked response: 88.175

###

Assay: Determination of Log P (n-octanol/water partition)
Format: physicochemical
Details: 177Lu-labeled compound, mean of three tubes
OUTCOME_MEASURE: logP
Give the value as a plain number.

Solved cases below.
[[record]]
compound = "O=C(O)CC[C@H](NC(=O)NC(CCCCNC(=O)[C@H](Cc1ccc2ccccc2c1)NC(=O)[C@H]1CC[C@H](NC(=O)CCC(=O)NCC(=O)N2CN(C(=O)CNC(=O)CCC(=O)N[C@H]3CC[C@H](C(=O)N[C@@H](Cc4ccc5ccccc5c4)C(=O)NCCCC[C@H](NC(=O)N[C@@H](CCC(=O)O)C(=O)O)C(=O)O)CC3)CN(C(=O)CNC(=O)CN3CCN(CC(=O)O)CCN(CC(=O)O)CCN(CC(=O)O)CC3)C2)CC1)C(=O)O)C(=O)O (stereo partly drawn) [DB-13]"
outcome_measure = "logP"
value = -1.96

[[record]]
compound = "O=C(O)CC[C@H](NC(=O)N[C@@H](CCCCNC(=O)[C@H](Cc1ccc2ccccc2c1)NC(=O)c1ccc2c(c1)CCN(C(=O)CN1CCN(CC(=O)O)CCN(CC(=O)O)CCN(CC(=O)O)CC1)C2)C(=O)O)C(=O)O [Compound E-3, reference compound]"
outcome_measure = "logP"
value = -3.46


Switching to the query record.
Exam item: Return reported logP; argument: O=C(O)CC[C@H](NC(=O)NC(CCCCNC(=O)[C@H](Cc1ccc2ccccc2c1)NC(=O)c1ccc2c(c1)CCN(C(=O)c1cc(NC(=O)CN3CCN(CC(=O)O)CCN(CC(=O)O)CCN(CC(=O)O)CC3)cc(C(=O)N3CCc4cc(C(=O)N[C@@H](Cc5ccc6ccccc6c5)C(=O)NCCCC[C@H](NC(=O)N[C@@H](CCC(=O)O)C(=O)O)C(=O)O)ccc4C3)c1)C2)C(=O)O)C(=O)O (stereo partly drawn) [DB-18]
Marked response: -1.86
